test system: OVCAR-3 ovarian; assay: NCI-60 one-dose screen, 48 h; settings: 10 µM unless noted
About 83,000 compounds went through this panel and 20% of them were active in at least one assay; those are over-represented in the sample as a whole. Calls of active or inactive are those of the source. The calls were made as follows: active = growth percent below 10; inactive = the rest.
API: response.call in active, inactive

Input: Hi, sorry to bother you, what did the test record for C=C1C(=O)O[C@H]2[C@H]1CC/C(COC(=O)NCCc1ccc(OC)cc1)=C\CC[C@@]1(C)O[C@@H]21 ?
Output: active

Input: Hi, sorry to bother you, what did the test record for CC(=O)OCC1OC(OCC2OC(OC(C)=O)C(OC(C)=O)C(OC(C)=O)C2OC(C)=O)C(OC(C)=O)C(OC(C)=O)C1OC(C)=O (stereo not given) ?
Output: inactive

Input: Hi, sorry to bother you, what did the test record for NCCSC(c1ccccc1)(c1ccccc1)c1ccccc1 ?
Output: active

Input: Hi, sorry to bother you, what did the test record for CC(=O)/C=C/c1cc2cc(Cl)ccc2[nH]c1=O ?
Output: inactive

Input: Hi, sorry to bother you, what did the test record for CC1CCc2c(sc(NC(=O)CSc3nnc4ccccn34)c2C(N)=O)C1 (stereo not given) ?
Output: inactive

Input: Hi, sorry to bother you, what did the test record for CCCS(=O)(=O)c1nc(NC2CC2)cc(-c2ccc3c(ccn3C3CC(C)(C)NC(C)(C)C3)c2)n1 ?
Output: active

Input: Hi, sorry to bother you, what did the test record for C[C@]12CC[C@@H]3c4cc(O)c(O)cc4CC[C@H]3[C@@H]1CC[C@@H]2O ?
Output: inactive

Input: Hi, sorry to bother you, what did the test record for CCCCCCCCCCn1cc[n+](C)c1 ?
Output: inactive

Input: Hi, sorry to bother you, what did the test record for CCN1C(=S)N(CC)C2Nn3c(s/c(=C4\C(=O)N(C)c5ccccc54)c3=O)=NC21 (stereo not given) ?
Output: inactive

Input: Hi, sorry to bother you, what did the test record for C/C(=N\NC(=O)CC#N)c1cc2cc(Cl)ccc2o1 ?
Output: inactive

Input: Hi, sorry to bother you, what did the test record for CCOC(=O)[C@H](CSSc1ncnc2cc[nH]c12)NC(=O)[C@@H](C)c1ccc2cc(OC)ccc2c1 ?
Output: inactive

Input: Hi, sorry to bother you, what did the test record for CCSc1nnc(Nc2ccc(C(C)C)cc2)s1 ?
Output: inactive

Input: Hi, sorry to bother you, what did the test record for COc1ccc(C(=O)c2cc(OC)c(OC)c(OC)c2)cc1/C=C/C(=O)c1ccc(OC)c(OC)c1 ?
Output: active

Input: Hi, sorry to bother you, what did the test record for Cc1cc2c(C(C)C)c(O)c(O)c(C=NCCCCCCC(=O)O)c2c(O)c1-c1c(C)cc2c(C(C)C)c(O)c(O)c(C=NCCCCCCC(=O)O)c2c1O ?
Output: inactive

Input: Hi, sorry to bother you, what did the test record for COC(=O)CCCCCCN=Cc1c(O)c(O)c(C(C)C)c2cc(C)c(-c3c(C)cc4c(C(C)C)c(O)c(O)c(C=NCCCCCCC(=O)OC)c4c3O)c(O)c12 ?
Output: inactive

Input: Hi, sorry to bother you, what did the test record for Clc1cccc(Cl)c1Cn1c(-c2cncs2)nc2ccccc21 ?
Output: inactive

Input: Hi, sorry to bother you, what did the test record for COc1ccccc1OCC(=O)Nc1sc2c(c1C(N)=O)CCC2 ?
Output: inactive

Input: Hi, sorry to bother you, what did the test record for Cc1sc(N=Nc2ccc(N(C)C)cc2)[n+]([O-])c1C ?
Output: inactive

Input: Hi, sorry to bother you, what did the test record for CCC(C)NCC(=O)O (stereo not given) ?
Output: inactive

Input: Hi, sorry to bother you, what did the test record for CC1=C(C#N)C(C)(C)C(C#N)=C(C)N1 ?
Output: inactive

Input: Hi, sorry to bother you, what did the test record for CCCCCCCC/C=C\CCCCCCCCOc1ccccc1CCOP(=O)(O)OCC[N+](C)(C)C ?
Output: inactive

Input: Hi, sorry to bother you, what did the test record for N=C(N)c1ccc(-c2ccc(-c3ccc(Cl)cc3)o2)nc1 ?
Output: active

Input: Hi, sorry to bother you, what did the test record for Nc1cc2c(cc1N)-c1cc(N)c(N)cc1C2 ?
Output: inactive

Input: Hi, sorry to bother you, what did the test record for Cc1cc(Nc2nc(C(=O)Nc3ccccc3)nc3ccccc23)n[nH]1 ?
Output: inactive

Input: Hi, sorry to bother you, what did the test record for CCCCCCCCCCCCNC(=S)N/N=C/c1ccc(Cl)c(Cl)c1 ?
Output: inactive
